- Assay info: recombinant barcode read abundance after kanamycin selection (control-corrected) (log10(CPM+1)); higher = more efficient recombination; sequences stand for … in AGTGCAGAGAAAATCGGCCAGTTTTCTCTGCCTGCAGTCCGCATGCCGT…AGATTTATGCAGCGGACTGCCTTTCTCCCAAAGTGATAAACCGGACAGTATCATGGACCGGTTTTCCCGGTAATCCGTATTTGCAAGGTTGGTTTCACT; site = the 11-nt target;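 further: IS621 recombinase and bridge RNA in Escherichia coli cells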
Readout name: recombinant barcode read abundance (log10)

[[record]]
residue_sequence = "CAGGGCCCTTGGGTTCTAACCTGTTGCCT (site GAGGGCCCTAG)"
observed_measurement = 0.527

[[record]]
residue_sequence = "CTGATCCCTTGGGTTCTAACCTGTTGCGG (site CTGTTCCCTCC)"
observed_measurement = 0.0812

[[record]]
residue_sequence = "GCATGAGCTTGGGTTCTAACCTGTTGCCT (site GCTTGAGCTAG)"
observed_measurement = 0.914

[[record]]
residue_sequence = "GTCCGGTCTTGGGTTCTAACCTGTTGCTT (site GTCGGGTCTAG)"
observed_measurement = 0.097

[[record]]
residue_sequence = "ATGGGCCCTTGGGTTCTAACCTGTTGCTA (site ATGGGCCCTGA)"
observed_measurement = 0.288

[[record]]
residue_sequence = "CTAAGTCCTTGGGTTCTAACCTGTTGCAT (site CTAACTCCTAT)"
observed_measurement = 0.0677

[[record]]
residue_sequence = "TCTTGGACTTGGGTTCTAACCTGTTGCTT (site TCTTGGACTTA)"
observed_measurement = 0.138

[[record]]
residue_sequence = "CTGATTACTTGGGTTCTAACCTGTTGCCT (site CTGATAACTAG)"
observed_measurement = 0.0337

[[record]]
residue_sequence = "CGCAGCTCTTGGGTTCTAACCTGTTGCCT (site CGAAGCTCTAG)"
observed_measurement = 0.0165

[[record]]
residue_sequence = "TACCTGACTTGGGTTCTAACCTGTTGCCT (site TACCCGACTAG)"
observed_measurement = 0.355


The values you see were collected from the supplement of paper PMC11208160.
